- Tested on: VchCAST RNA-guided transposition machinery (E. coli BL21(DE3) host, lacZ target)
- Test Details: relative integration efficiency (T-RL orientation) vs wild-type transposon end (log2 (normalized fold change)); transposon end mutated: right end (5 bp flank + 75 bp right end); higher = more efficient transposition
# label = met if relative integration efficiency (log2) >= -0.6 else not met

Solved cases (4 shown):
{"Residue Sequence": "ACATTTGTTGATACAACCATATATTGATATCTCCACCCATAAATTGATATTGCTCAGTGGGTATTTAACTATAACGCTCTGATCATAGTCAGACCAACATTGCTACGACCCGTATTCGCACCGACAC", "Experimental Target": "VchCAST RNA-guided transposition machinery (E. coli BL21(DE3) host, lacZ target)", "Class Label": "not met"}
{"Residue Sequence": "ACATTTGTTGATACAACCATAAAATGATAATTACACCCATAAATTGATAATTATCACACCCATAAATTGATATTGCCTCTGATCAATATGTAACCAAAAGTAAAATAGTCAGACCAAGCACCGACAC", "Experimental Target": "VchCAST RNA-guided transposition machinery (E. coli BL21(DE3) host, lacZ target)", "Class Label": "met"}
{"Residue Sequence": "ACATTTGAAGATACAACCATAAAATGATAATTACACCCATAAATTGATAATTATCACACCCATAAATTGATATTGCCTCTGATCATAGTCAGACCAACATTGCTACGACCCGTATTCGCACCGACAC", "Experimental Target": "VchCAST RNA-guided transposition machinery (E. coli BL21(DE3) host, lacZ target)", "Class Label": "met"}
{"Residue Sequence": "ACATTTGTTGATACAACCATAAAATGATCATTCACCCCTAAATTGATAATTATCACACCCACATTTAACTATAACGCTCTGATCATAGTCAGACCAACATTGCTACGACCCGTATTCGCACCGACAC", "Experimental Target": "VchCAST RNA-guided transposition machinery (E. coli BL21(DE3) host, lacZ target)", "Class Label": "not met"}

Consider the record given below.
Check this sequence for relative integration efficiency (log2) at or above -0.6: ACATTTGTCGATACAACCCTAAAATGATAATTACACCCATAAATGGATAATTATCACACCCAATTTAACTATAACGCTCTGATCATAGTCAGACCAACATTGCTACGACCCGTATTCGCACCGACAC
not met

###

- Tested on: VchCAST RNA-guided transposition machinery (E. coli BL21(DE3) host, lacZ target)
- Test Details: relative integration efficiency (T-LR orientation) vs wild-type transposon end (log2 (normalized fold change)); transposon end mutated: right end (5 bp flank + 75 bp right end); higher = more efficient transposition
Classes are defined on relative integration efficiency (log2) with ranges category 1 (below -0.9), category 2 (-0.9 to below 0.06), category 3 (0.06 or more)

Solved cases (4 shown):
{"Residue Sequence": "ACATTTGTTGATACAACCATAAAATTCTAATTACACCCATAAATTGATAATTATCACACCCATAAATTGATATTGCCTCTGATCATAGTCAGACCAACATTGCTACGACCCGTATTCGCACCGACAC", "Experimental Target": "VchCAST RNA-guided transposition machinery (E. coli BL21(DE3) host, lacZ target)", "Class Label": "category 1"}
{"Residue Sequence": "ACATTTGTTGATACAACCATATATTGATATCTCCACCCATAAATTGATAATTATCACAACCATAAGTTGATATTTTCTCTGATCATAGTCAGACCAACATTGCTACGACCCGTATTCGCACCGACAC", "Experimental Target": "VchCAST RNA-guided transposition machinery (E. coli BL21(DE3) host, lacZ target)", "Class Label": "category 2"}
{"Residue Sequence": "ACATTTGTTGATACAACCATAAAATGATAATTACACCCATAAATTGAATTATATCACACCCATAAATTGATATTGCCTCTGATCATAGTCAGACCAACATTGCTACGACCCGTATTCGCACCGACAC", "Experimental Target": "VchCAST RNA-guided transposition machinery (E. coli BL21(DE3) host, lacZ target)", "Class Label": "category 2"}
{"Residue Sequence": "ACATTTGTTGATACAACCATAAAATGATAATTAATAACACCCATAAATTGATAATTATCAACAAACGCCCGGTCGCGGTACTCTGATCATAGTCAGACCAACATTGCTACGACCCGTATTCGCACCG", "Experimental Target": "VchCAST RNA-guided transposition machinery (E. coli BL21(DE3) host, lacZ target)", "Class Label": "category 3"}

Which relative integration efficiency (log2) band matches ACATTTGTTGATACAACCCTAAAATGATAATTACACCCATAAATTGATAATTATCACCCCCAATTTAACTATAACGCTCTGATCATAGTCAGACCAACATTGCTACGACCCGTATTCGCACCGACAC ?
category 3

Which relative integration efficiency (log2) band matches ACATTTGTCGATACAACCATAAAATGATAATTACACCCATAAATTCATAATTATCACACCCAATTTAACTATAACGCTCTGATCATAGTCAGACCAACATTGCTACGACCCGTATTCGCACCGACAC ?
category 3

Which relative integration efficiency (log2) band matches ACATTTGTTGATACAACCATAAGTTGATATTTTCAACCATAAAATGATAATTATCACAACCATAAAGTGATATTTACTCTGATCATAGTCAGACCAACATTGCTACGACCCGTATTCGCACCGACAC ?
category 2

Which relative integration efficiency (log2) band matches ACATTTGTTGATACAACCATAAAATGATAATTAATAATTATTTATAATCAGCAACTTAACCACCCATAAATTGATAATTATCACACCCATAAATTGATATTGCCTCTGATCATAGTCAGACCAACAT ?
category 1

Which relative integration efficiency (log2) band matches ACATTTGTTGATACAACCATAAAATGATAATTACACCCATAAATTGATAATTACACCCATAAATTGATATTGCCTCTGATCATAGTCAGACCAACATTGCTACGACCCGTATTCGCACCGACACTGA ?
category 3

Which relative integration efficiency (log2) band matches ACATTTGTTGATACAACCATAACCGTCGCCGGCACAAACGCCCGGTCGCCGGCGACACAAACGCCCGGTCGCGGTAAGAGGATCATAGTCAGACCAACATTGCTACGACCCGTATTCGCACCGACAC ?
category 1

###

- System: VchCAST RNA-guided transposition machinery (E. coli BL21(DE3) host, lacZ target)
- Test Details: relative integration efficiency (T-LR orientation) vs wild-type transposon end (log2 (normalized fold change)); transposon end mutated: left end; higher = more efficient transposition
Below is a list of entries, each paired with its recorded relative integration efficiency (log2) value.
Provide a numeric answer; units are not to be included.

// below: answered sequences
{"Residue Sequence": "AATGTTGTTGATGCAACCATAAAGTGATATTTAATAATTATTTATAATCAGCAACTTAACCACAAAAACCAACGCGCGGTCGCGAGAACAAAACAACCATAAGTTGATATTTTTGTGAATCGAGTATTTCAGCAAAACTACTGCAGTAAGAA", "Metric": "relative integration efficiency (log2)", "Test Value": -2.16}
{"Residue Sequence": "AATGTTGTTGATGCAACCATAAAGTGATATTTAATAATTATTTATAATCAGCAACTTAACCACAAAAGTTGGTATATAACTATAGAGACAAAACAACCATAAGTTGATATTTTTGTGAATCGAGTATTTCAGCAAAACTACTGCAGTAAGAA", "Metric": "relative integration efficiency (log2)", "Test Value": -1.8}
{"Residue Sequence": "AATGTTGTTGATGCAACCATAAAGTGATATTTAATAATTATTTATAATCAGCAACTTAACCACAAAACAACCATATATTGATATCTCACACCCACCAACGCCTGGTCGCGGGGGTGTCCGATCTGATTTCAGCAAAACTACTGCAGTAAGAA", "Metric": "relative integration efficiency (log2)", "Test Value": -1.23}

Name the recorded relative integration efficiency (log2) of the item AATGTTGTTGATGCAACCATAAAGTGATATTTACAACCATATATTGATATCTCTCACAACCATAAGTTGATATTTCTCTGATCATAGTCAGACCAACATTGCTACGACCCGTATTCGCACCGACACTGTGAATCGAGTATTTCAGCAAAACT in your answer.
2.61

###

- System: VchCAST RNA-guided transposition machinery (E. coli BL21(DE3) host, lacZ target)
- Test Details: relative integration efficiency (T-RL orientation) vs wild-type transposon end (log2 (normalized fold change)); transposon end mutated: left end; higher = more efficient transposition
Below is a list of entries, each paired with its recorded relative integration efficiency (log2) value.
Provide a numeric answer; units are not to be included.

# lookup: VchCAST RNA-guided transposition machinery (E. coli BL21(DE3) host, lacZ target) relative integration efficiency (log2), key = AATGTTGTTGATGCAACCATAAAGTGATATTTAATAATTATTTCAACCATAAAGTGATATTTAACTTCAACCATATATTGATATCTCACAAAACAACCATAAGTTGATATTTTTGTGAATCGAGTATTTCAGCAAAACTACTGCAGTAAGAA
-6.43
